study-system: T1, human CGRP receptor extracellular domain (ECD) (human, UniProt Q16602 23-138; O60894 27-117)
T1 construct: also called CGRP receptor ECD; human CGRP receptor ECD
T1 sequence (Q16602 23-138 limits assumed, chain 1 of 2): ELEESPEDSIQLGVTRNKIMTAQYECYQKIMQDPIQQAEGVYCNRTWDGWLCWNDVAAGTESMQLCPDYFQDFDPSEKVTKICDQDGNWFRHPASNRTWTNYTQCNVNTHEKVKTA
T1 sequence (O60894 27-117 limits assumed, chain 2 of 2): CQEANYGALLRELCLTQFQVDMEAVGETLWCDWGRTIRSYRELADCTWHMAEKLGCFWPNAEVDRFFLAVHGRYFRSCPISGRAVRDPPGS
test-description: yeast-displayed Fab, FACS, 1 nM human CGRP receptor ECD
quantity: Mutant vs. 4E4.2 Parent B/D Ratio
Value and unit, in that order.

// solved cases for Mutant vs. 4E4.2 Parent B/D Ratio follow
binder: anti-CGRP receptor variant 11, yeast-displayed Fab (Fab, V domains shown, also called Variant Ab ID 11) VH: QVQLVESGGGVVQPGRSLRLSCAASGFWFDTFGMHWVRQAPGKGLEWVAVISFAGEDTHYVDSVKGRFTISRDNSKNTLFLQMNSLRAEDTAVYYCARDRLNYYESYGYYGYHYYGMAVWGQGTTVTVSS VL: QSVLTQPPSVSAAPGQKVTISCSGSRSNIGRYSVSWYQQLPGTAPKLLIYENMFRPRGIPDRFSGSKSGTSATLGITGLQTGDEADYYCGTWDYRMQAVVFGGGTKLTVLG
Mutant vs. 4E4.2 Parent B/D Ratio: 11 fold
//
binder: anti-CGRP receptor variant 01, yeast-displayed Fab (Fab, V domains shown, also called Variant Ab ID 01) VH: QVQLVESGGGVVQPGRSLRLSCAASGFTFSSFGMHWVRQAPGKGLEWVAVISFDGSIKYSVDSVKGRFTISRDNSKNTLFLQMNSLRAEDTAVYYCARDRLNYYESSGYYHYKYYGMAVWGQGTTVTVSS VL: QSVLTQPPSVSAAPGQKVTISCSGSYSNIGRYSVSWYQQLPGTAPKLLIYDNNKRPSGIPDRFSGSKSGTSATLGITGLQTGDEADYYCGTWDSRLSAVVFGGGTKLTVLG
Mutant vs. 4E4.2 Parent B/D Ratio: 1.7 fold

Q: Can you look up the measured Mutant vs. 4E4.2 Parent B/D Ratio of anti-CGRP receptor variant 12, yeast-displayed Fab (Fab, V domains shown, also called Variant Ab ID 12) VH: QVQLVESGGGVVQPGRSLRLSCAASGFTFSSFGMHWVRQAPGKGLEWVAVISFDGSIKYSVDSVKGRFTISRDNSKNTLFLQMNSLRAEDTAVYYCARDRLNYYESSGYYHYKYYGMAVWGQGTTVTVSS VL: QSVLTQPPSVSAAPGQKVTISCSGSRSNIGRYSVSWYQQLPGTAPKLLIYDNRYRAQGIPDRFSGSKSGTSATLGITGLQTGDEADYYCGTWDWATTSVVFGGGTKLTVLG for me?
Result: 2.8 fold

Source listed as patent US20220363770A1.
